Tested on: MDA-N
PROTOCOL DETAILS: NCI tumour cell line growth inhibition, 48 h
QUANTITY MEASURED: TGI (µM)
Your answer should be a plain number; it is taken to be in µM.

Here are 6 compounds together with their reported answers.
COMPOUND | QUANTITY MEASURED | NUMERIC READOUT
O=C1NCN(c2ccccc2)C12CCN(CCCN1CCN(CCOC(c3ccc(F)cc3)c3ccc(F)cc3)CC1)CC2 | TGI | 3.65
C[C@]12CC[C@@H]3c4cc(I)c(O)cc4CC[C@H]3[C@@H]1CC[C@@H]2O | TGI | 5.77
O=c1cc(/C=C/c2ccccc2)[nH]c2cc3c(cc12)OCO3 | TGI | 6.23
Cc1cnc2c(c1)C(=O)C1=C(C2=O)C2OC(=O)CC2OC1(C)C (configuration not stated) | TGI | 0.865
Cc1c2c(OCC3CCCCO3)nn(C)c(=O)c2c(C)n1-c1ccccc1 (configuration not stated) | TGI | 35.8
C#CCN(Cc1ccc2nc(OC)c(OC)nc2c1)c1cc(OC)c(OC)c(OC)c1 | TGI | 45.5

// fetch MDA-N TGI for "Cc1ccc(C2=CC(=O)/C(=C\C(=O)c3ccc(Cl)cc3)O2)cc1"
16.2

====

Tested on: MOLT-4 leukemia
PROTOCOL DETAILS: NCI tumour cell line growth inhibition, 48 h
// values below are reported TGI

Guide cases for TGI, answers given:
COMPOUND | SUBJECT OF TEST | RESULT
CC(C)(Oc1ccc(/C=C/C(=O)c2ccc(Cl)cc2)cc1)C(=O)Nc1c(Cl)cccc1Cl | MOLT-4 leukemia | 96.5 µM
C(=N\Nc1nnn(Cc2ccccc2)n1)/c1ccccc1 | MOLT-4 leukemia | > 100 µM
c1ccc(N2N=C(c3ccco3)CC2c2ccco2)cc1 (stereo unspecified) | MOLT-4 leukemia | 52.4 µM
c1c2c(cc(-n3nnc4c3CCCCCC4)c1-n1nnc3c1CCCCCC3)CCCCCC2 | MOLT-4 leukemia | 11 µM
N#Cc1c(-c2ccccc2)cc(-c2ccc(Cl)cc2)[nH]c1=S | MOLT-4 leukemia | > 100 µM
O=c1c2cc(Br)ccc2nc(CCl)n1-c1ccc(O)c([N+](=O)[O-])c1 | MOLT-4 leukemia | 53.5 µM
O=[N+]([O-])c1ccc(-c2ccc(-c3csc(Nc4ccccc4)n3)o2)cc1 | MOLT-4 leukemia | 46.2 µM
C=C1C(O)CC[C@]2(C)C1C1OC(C)(C)O[C@]13CC(=O)C(C)=C([C@H]1OC(C)(C)OC12)C3(C)C (stereo partly specified) | MOLT-4 leukemia | > 100 µM
CC(C)(C)C(=O)[CH-]C(=O)C(C)(C)C.CC(C)(C)C(=O)[CH-]C(=O)C(C)(C)C.CN(C)c1ccc([O-])cc1.CN(C)c1ccc([O-])cc1.[Ti+4] | MOLT-4 leukemia | > 100 µM
O=C1CCCCN1CCCCC#Cc1cccc(C#Cc2cccnc2)c1 | MOLT-4 leukemia | > 100 µM

Find the measured TGI: item CC(=O)O[C@H]1CCc2c(cc(N)c3c2C(=O)C[C@]2(C)C([C@H](C)CCCC(C)C)CCC32C)C1(C)C (stereo partly specified) , target or system MOLT-4 leukemia.
> 100 µM

Give recorded TGI with MOLT-4 leukemia for the following compound: "O=C(N/N=C/c1ccccc1O)c1ccccc1"
> 100 µM

Param readout= TGI; system= MOLT-4 leukemia; entry= N#Cc1ccc(NC(=O)C(CC(=O)OCc2ccccc2)NC(=O)OCc2ccccc2)cc1 (stereo unspecified) ; returns value.
> 100 µM

Form field - read-out: TGI; system: MOLT-4 leukemia; submitted item: COC(=O)C1(C)Cc2cc(OC(C)=O)c(OC(C)=O)cc2N1 (stereo unspecified)
> 60.2 µM

State its TGI on MOLT-4 leukemia: "Cc1cc(N(CCC#N)CCC#N)ccc1/C=C(\NC(=O)/C=C/c1ccccc1)C(=O)NN"
> 100 µM

TGI of "CCCCCCCCCCCCCCCC[N+]1(C)CCOCC1" on MOLT-4 leukemia?
3.69 µM

====

Test system: ACHN renal
PROTOCOL DETAILS: NCI tumour cell line growth inhibition, 48 h
QUANTITY MEASURED: GI50

COMPOUND | GI50
COc1ccc2c(c1)/C(=C/c1cc(OC)c(OC)c(OC)c1)C(=O)N2 | 4.19 µM
O=C1CCCCN1CCCCC#Cc1cccc(C#Cc2cccnc2)c1 | 9.64 µM
CCOC(=O)/C(C#N)=C\C=C(/Cl)c1ccc(Cl)cc1 | 18.3 µM

Fill in: GI50 of COc1ccc(/C(=N\NC(=S)NN)C(c2ccc(OC)cc2)C2C(=O)Oc3ccccc32)cc1 (configuration not stated) is ___
> 100 µM

For the compound "O=c1c(F)cn(Cc2ccccc2CCl)c(=O)n1Cc1ccccc1CCl" , what GI50 is on record?
1.58 µM

Value lookup for GI50; key = "C(=N\Nc1nnn(Cc2ccccc2)n1)/c1ccccc1"
16.1 µM

Requested field: GI50. Item: "O=S(=O)(NCCCNc1nccc(-c2c(-c3ccc(F)cc3)nc3sccn23)n1)c1ccc2ccccc2c1"
3.42 µM

====

Here the recorded TGI is given for each entry.
System: DU-145 prostate
PROTOCOL DETAILS: NCI tumour cell line growth inhibition, 48 h

Here is how some molecules turned out for TGI.
MOLECULE | SUBJECT OF TEST | QUANTITY MEASURED | RESULT
O=C(N[C@@H](C[Se][Se]C[C@H](NC(=O)c1ccc(Br)cc1F)C(=O)O)C(=O)O)c1ccc(Br)cc1F | DU-145 prostate | TGI | > 100 µM
COC1CC(OC2CCC3(C)C(=CCC4C3C(OC(C)=O)C(OC(=O)CC(C)C)C3(C)C(C(C)=O)CCC43O)C2)OC(C)C1OC1CC(OC)C(OC2CC(OC)C(OC3OC(C)C(OC4OC(CO)C(O)C(O)C4O)C(OC)C3O)C(C)O2)C(C)O1 (centres undefined) | DU-145 prostate | TGI | > 75 µM
C[C@]12CC[C@@H]3c4cc(I)c(O)cc4CC[C@H]3[C@@H]1CC[C@@H]2O | DU-145 prostate | TGI | 23.8 µM

// switching to the query molecule
Quick check: TGI on DU-145 prostate, item "O=C1c2ccccc2NC(=S)[C@@H]2CCCN12" ?
> 100 µM

====

TGI values, listed per item
Test system: EKVX NSCLC
PROTOCOL DETAILS: NCI tumour cell line growth inhibition, 48 h

Solved entries (count: 8):
COMPOUND | TGI
C1=C\SS/C=C\SS/1 | > 100 µM
Oc1ccccc1-c1nn(CNc2ccccc2Cl)c(=S)o1 | > 100 µM
CCOP(=O)(/C=C\n1ccc(N)nc1=O)OCC | > 100 µM
C=Cc1ccccc1C1(O)C=CC(OC)(OC)C=C1 | 50.5 µM
O=C1OCC2=C1C(c1ccccc1)c1cc3c(cc1N2CCO)OCO3 (stereo not given) | > 50 µM
CSC(=NCCc1c[nH]c2ccccc12)NC#N | > 100 µM
CC(=O)OC1CCC2C3CCc4c(C)ccc(OS(=O)(=O)c5ccccc5)c4C3CCC12C (stereo not given) | > 100 µM
COc1ccc(OC)c(Cn2cc3c(c2-c2ccccc2)CCc2cnoc2-3)c1 | > 100 µM

Param item = CCOC(=O)C(NC(=O)c1nc[nH]c1[N+](=O)[O-])C(C)C (stereo not given) ; retrieve measured TGI.
> 100 µM

Entry "Cc1ccc(/C=C2\Cc3c(C)cc(C)cc3C2=O)c(C(=O)O)c1" : reported TGI = ?
> 100 µM

====

System: SF-295 CNS
PROTOCOL DETAILS: NCI tumour cell line growth inhibition, 48 h
QUANTITY MEASURED: TGI (µM)
Please give a number only; it is taken to be in µM.

These solved cases illustrate the format of a correct answer.
SMI | VALUE UNIT | NUMERIC READOUT
COc1cc2c(cc1OC)-c1cc3ccccc3c(=O)n1CC2 | µM | 62.1
CCCCn1c(-c2ccc([N+](=O)[O-])cc2)cs/c1=N/N=C1\C(=O)Nc2ccc(Br)cc21 | µM | 61.2
O=c1c2cc(Br)ccc2nc(CCl)n1-c1ccc(O)c([N+](=O)[O-])c1 | µM | 31.5
CC(C)(Oc1ccc(/C=C/C(=O)c2ccc(Cl)cc2)cc1)C(=O)Nc1c(Cl)cccc1Cl | µM | 49.6

Now consider the entry below.
Tell me the measured TGI of "C(=N\Nc1nnn(Cc2ccccc2)n1)/c1ccccc1" , please.
56.3

====

Tested on: UACC-62 melanoma
PROTOCOL DETAILS: NCI tumour cell line growth inhibition, 48 h; in the data active = GI50 below about 0.43 µM; inactive = the rest
Write down one outcome, taken from 1 (yes) = active, 0 (no) = inactive

See these solved cases before continuing.
COMPOUND | CATEGORY LABEL
O=S(=O)(NCCCNc1nccc(-c2c(-c3ccc(F)cc3)nc3sccn23)n1)c1ccc2ccccc2c1 | 0 (no)
Cc1cc(I)cc(CN(C)CCCN2CCCC2)c1O | 0 (no)
Oc1ccccc1-c1nn(CNc2ccccc2Cl)c(=S)o1 | 0 (no)
C[C@]12CC[C@@H]3c4cc(I)c(O)cc4CC[C@H]3[C@@H]1CC[C@@H]2O | 0 (no)
COc1ccc(OC)c(Cn2cc3c(c2-c2ccccc2)CCc2cnoc2-3)c1 | 0 (no)

# lookup: test call for CCC1=CC2CN(C1)Cc1c([nH]c3ccccc13)[C@@](C(=O)OC)(c1cc3c(cc1OC)N(C)[C@H]1[C@@](O)(C(=O)OC)[C@H](OC(C)=O)[C@]4(CC)C=CCN5CC[C@]31[C@@H]54)C2 (some centres undefined)
1 (yes)

Hey, what did the test say about "CCOC(=O)/C(C#N)=C\C=C(/Cl)c1ccc(Cl)cc1" ?
0 (no)

Answer briefly: the call reported for "O=C(N/N=C/c1ccccc1O)c1ccccc1" in this assay.
0 (no)

What did the test return for "Cc1ccc(-c2nc3nc(-c4ccc(F)cc4)nc(N4CCCNCC4)c3o2)cc1" ?
0 (no)
